Molecular target: human FFAR1 (GPR40) (Homo sapiens, UniProt O14842)
Construct: Flag
Sequence (O14842 whole entry): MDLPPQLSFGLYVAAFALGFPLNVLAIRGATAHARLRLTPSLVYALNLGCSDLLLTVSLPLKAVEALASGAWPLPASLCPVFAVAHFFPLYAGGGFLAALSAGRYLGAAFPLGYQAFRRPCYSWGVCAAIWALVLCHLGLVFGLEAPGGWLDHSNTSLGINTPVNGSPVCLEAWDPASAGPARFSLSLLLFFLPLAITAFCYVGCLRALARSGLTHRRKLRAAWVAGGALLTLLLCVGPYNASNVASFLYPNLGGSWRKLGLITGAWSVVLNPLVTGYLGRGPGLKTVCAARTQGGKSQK
Assay: NFAT-RE-based reporter gene activity assay (Dual-Glo luciferase) for GPR40 agonistic activity in co-transfected HEK293T cells
Conditions: 4-hour treatment
I'd appreciate it if you could supply EC50 values for the items below.

Reference set, count: 3
Please list EC50 recorded for the molecule COc1cccc(N2CCC(c3oc4cc(C(CC(=O)O)C5CC5)ccc4c3C(=O)Nc3nccs3)CC2)c1 (centres unmarked) [Compound 290] 100 to 500 nM

Query EC50 for COc1cccc(N2CCC(c3oc4cc([C@@H](CC(=O)O)C5CC5)ccc4c3-c3ccc4ccccc4n3)CC2)c1 [Compound 154] 100 to 500 nM

Look up and state reported EC50 for COc1cccc(N2CCC(c3oc4cc(C(CC(=O)O)C5CC5)ccc4c3C(=O)NC34CC5CC(CC(C5)C3)C4)CC2)c1 (centres unmarked) [Compound 349] 100 to 500 nM

Report EC50 for every entry below.
1. COc1cccc(N2CCC(c3oc4cc(C(CC(=O)O)C5CC5)ccc4c3-c3cccc(C(C)(C)C)c3)CC2)c1 (centres unmarked) [Compound 11]
2. COc1cccc(N2CCC(c3oc4cc([C@@H](CC(=O)O)C5CC5)ccc4c3CN(CC(C)(C)C)C(C)=O)CC2)c1 [Compound 442]
3. COc1cccc(-c2c(C3CCN(c4cccc(OC)c4)CC3)oc3cc(C(CC(=O)O)C4CC4)ccc23)c1 (centres unmarked) [Compound 29]
4. CC(C)=CCc1c(C2CCN(c3ccc4c(c3)OCO4)CC2)oc2cc([C@@H](CC(=O)O)C3CC3)ccc12 [Compound 376]
5. COc1cccc(N2CCC(c3oc4cc([C@@H](CC(=O)O)C5CC5)ccc4c3CN(C)CC(C)(C)C)CC2)c1 [Compound 438]
6. COc1cccc(N2CCC(c3oc4cc([C@@H](CC(=O)O)C5CC5)ccc4c3-c3ncc(C(C)C)s3)CC2)c1 [Compound 112]

1. 10 to 100 nM
2. 100 to 500 nM
3. 100 to 500 nM
4. 10 to 100 nM
5. 10 to 100 nM
6. 10 to 100 nM

State recorded EC50 for all listed molecules.
1. COc1cccc(N2CCC(c3oc4cc([C@@H](CC(=O)O)C5CC5)ccc4c3/C=C/C(C)(C)C)CC2)c1 [Compound 361]
2. COc1ccc(F)c(N2CCC(c3oc4cc([C@@H](CC(=O)O)C5CC5)ccc4c3CCCC3CC3)CC2)c1 [Compound 391]

1: 10 to 100 nM; 2: 100 to 500 nM

---

Molecular target: human FFAR1 (GPR40) (Homo sapiens)
Construct: Flag; expressed in transfected cells; host or cells: HEK293T
Experiment: NFAT-RE-based reporter gene activity assay (Dual-Glo luciferase) for GPR40 agonistic activity in co-transfected HEK293T cells
Format: cell-based
Settings: 4-hour treatment
property_name: EC50

Return the recorded EC50 value; entry: COc1ccc(F)c(N2CCC(c3oc4cc(C(CC(=O)O)C5CC5)ccc4c3-c3cccc(C(C)(C)C)c3)CC2)c1 (centres unmarked) 100 to 500 nM

Specify measured EC50 for COc1ccc(F)c(N2CCC(c3oc4cc(C(CC(=O)O)C5CC5)ccc4c3-c3ccc(N(C(C)=O)C(C)C)cc3)CC2)c1 (centres unmarked) . 100 to 500 nM

Using the record for CCc1ccc(Cl)c(NC(=O)c2c(C3CCN(c4ccc5c(c4)OCO5)CC3)oc3cc([C@@H](CC(=O)O)C4CC4)ccc23)c1 , state its measured EC50. ≤ 10 nM

Dear reader, for each entry below, please note its EC50.
1. COc1cccc(N2CCC(c3oc4cc([C@@H](CC(=O)O)C5CC5)ccc4c3C(C)N(C)CC(C)(C)C)CC2)c1 (some centres unmarked)
2. COc1cccc(N2CCC(c3oc4cc([C@@H](CC(=O)O)C5CC5)ccc4c3C(=O)Nc3cc(F)ccc3Br)CC2)c1
3. COc1cccc(N2CCC(c3oc4cc([C@@H](CC(=O)O)C5CC5)ccc4c3C(OC)c3ccccc3)CC2)c1 (some centres unmarked)
4. C=C(C)c1ccc(-c2c(C3CCN(c4cccc(OC)c4)CC3)oc3cc(C(CC(=O)O)C4CC4)ccc23)cc1 (centres unmarked)
5. COc1cccc(N2CCC(c3oc4cc(C(CC(=O)O)C5CC5)ccc4c3C(=O)NC34CC5CC(CC(C)(C5)C3)C4)CC2)c1 (centres unmarked)
6. COc1cccc(N2CCC(c3oc4cc([C@@H](CC(=O)O)C5CC5)ccc4c3CNCC(C)(C)C)CC2)c1
7. CSc1cccc(N2CCC(c3oc4cc(C(CC(=O)O)C5CC5)ccc4c3-c3cccc(C(C)(C)C)c3)CC2)c1 (centres unmarked)
8. COc1cccc(N2CCC(c3oc4cc([C@H](C5CC5)C(F)C(=O)O)ccc4c3-c3cnn(C(C)(C)C)c3)CC2)c1 (some centres unmarked)

1. 100 to 500 nM
2. ≤ 10 nM
3. 100 to 500 nM
4. 100 to 500 nM
5. 100 to 500 nM
6. 10 to 100 nM
7. 100 to 500 nM
8. 10 to 100 nM

---

Task for the reader: assign each of the following molecules its reported EC50.
Biological target: human FFAR1 (GPR40) (Homo sapiens)
Construct: Flag
Experiment: NFAT-RE-based reporter gene activity assay (Dual-Glo luciferase) for GPR40 agonistic activity in co-transfected HEK293T cells
Settings: 4-hour treatment

These recorded examples may help you get a feel for the data.
State, in one line, measured EC50 of COc1cccc(N2CCC(c3oc4cc([C@@H](CC(=O)O)C5CC5)ccc4c3-c3nc4ccccn4n3)CC2)c1 100 to 500 nM

For the molecule COc1ccc(F)c(N2CCC(c3oc4cc(C(CC(=O)O)C5CC5)ccc4c3-c3cccc(NCC(C)(C)C)c3)CC2)c1 (centres unmarked) , give its reported EC50. 100 to 500 nM

Name the recorded EC50 of the item COc1cccc(N2CCC(c3oc4cc([C@@H](CC(=O)O)C5CC5)ccc4c3C(=O)Nc3cccc(C)c3)CC2)c1F in your answer. 100 to 500 nM

Dear colleague, could you send me EC50 for each of the items below? Thanks.
1. COc1ccc(Cl)c(N2CCC(c3oc4cc(C(CC(=O)O)C5CC5)ccc4c3-c3cnn(C(C)(C)C)c3)CC2)c1 (centres unmarked)
2. COc1cccc(N2CCC(c3oc4cc([C@@H](CC(=O)O)C5CC5)ccc4c3C(=O)Nc3cc(OC(F)(F)F)ccc3Cl)CC2)c1
3. COc1cccc(N2CCC(c3oc4cc([C@@H](CC(=O)O)C5CC5)ccc4c3-c3cccc(NC(C)C)c3)CC2)c1

100 to 500 nM
> 500 nM
10 to 100 nM

// for each molecule below, give its EC50
1. COc1cccc(N2CCC(c3oc4cc([C@@H](CC(=O)O)C5CC5)ccc4c3C(OCC(C)C)c3cccc(F)c3)CC2)c1 (some centres unmarked)
2. COc1ccc(C#N)c(N2CCC(c3oc4cc(C(CC(=O)O)C5CC5)ccc4c3-c3cnn(C(C)(C)C)c3)CC2)c1 (centres unmarked)
3. CC(C)(C)c1ccc(-c2c(C3CCN(c4ccc5c(c4)OCCO5)CC3)oc3cc(C(CC(=O)O)C4CC4)ccc23)cc1 (centres unmarked)

1. 100 to 500 nM
2. 100 to 500 nM
3. 100 to 500 nM

Provide each entry's EC50 from the list below.
1. COc1ccc(F)c(N2CCC(c3oc4cc([C@@H](CC(=O)O)C5CC5)ccc4c3/C=C/C(C)(C)O)CC2)c1
2. COc1ccc(F)c(N2CCC(c3oc4cc(C(CC(=O)O)C5CC5)ccc4c3-c3cccc(Cl)c3)CC2)c1 (centres unmarked)
3. COc1ccc(F)c(N2CCC(c3oc4cc([C@@H](CC(=O)O)C5CC5)ccc4c3-c3nnc(C(C)(C)C)o3)CC2)c1
4. COc1cccc(N2CCC(c3oc4cc(C(CC(=O)O)C5CC5)ccc4c3-c3ncn(C)n3)CC2)c1 (centres unmarked)
5. COc1ccc(F)c(N2CCC(c3oc4cc(C(CC(=O)O)C5CC5)ccc4c3C(=O)Nc3ccccc3C)CC2)c1 (centres unmarked)
6. COc1cccc(N2CCC(c3oc4cc(C(CC(=O)O)C5CC5)ccc4c3C(=CCC(C)C)c3ccccc3)CC2)c1 (centres unmarked)
7. COc1cccc(N2CCC(c3oc4cc([C@@H](CC(=O)O)C5CC5)ccc4c3C(=O)Nc3ccccc3F)CC2)c1F

1. 100 to 500 nM
2. 100 to 500 nM
3. 100 to 500 nM
4. > 500 nM
5. 100 to 500 nM
6. 10 to 100 nM
7. ≤ 10 nM

Please supply the value of reported EC50 for the item COc1cccc(N2CCC(c3oc4cc([C@@H](CC(=O)O)C5CC5)ccc4c3C(=O)Nc3cc(F)ccc3Cl)CC2)c1 < 10 nM
